All figures here come from ChEMBL document CHEMBL4359888.

# measurement_protocol: physchem
# protocol_conditions: phosphate buffer, pH 7.46
Hi, to clarify the labels: Yes covers solubility kinetic at 2 h, 100 µM from 5 µM upward, No covers anything below 5 µM.

Some solved cases for reference:
# molecule, qualitative_label
data = [
    ("O=S(=O)(c1cccc(C(F)(F)F)c1)N1CCc2ccc(OCc3c(F)cccc3Cl)cc21", "No"),
    ("CC(=O)N1CCN(c2ccc(OCC3COC(Cn4ccnc4)(c4ccc(Cl)cc4Cl)O3)cc2)CC1 (stereo unspecified) [KETOCONAZOLE]", "Yes"),
    ("CC(C)(C[C@H]1CN(S(=O)(=O)c2cccc(C(F)(F)F)c2)c2cc(-c3cc(F)cc(OC(F)F)c3)ccc2O1)C(=O)O [CINTIRORGON]", "Yes"),
]

Task item: Textbook exercise: given the entry `O=S(=O)(c1cccc(C(F)(F)F)c1)N1CCc2ccc(-c3cc(F)cc(OC(F)F)c3)cc21` , state whether its solubility kinetic at 2 h, 100 µM is greater than or equal to 5 µM.
Reply: No

Task item: I'd appreciate it if you could say whether O=C(O)CC1Cc2ccc(-c3cc(F)cc(OC(F)F)c3)cc2N1S(=O)(=O)c1cccc(C(F)(F)F)c1 (racemic) has solubility kinetic at 2 h, 100 µM at least equal to 5 µM.
Reply: Yes

----------
# measurement_protocol: Cmax in CD-1 mouse at 5 mg/kg, po measured for 24 hrs by LC-MS/MS analysis
# Type: ADME, organism-based
# Parameters: dose 5 mg/kg, route oral
# protocol_conditions: in vivo
property_measured: Cmax (ng/mL)
Express it in ng/mL; write the number only.

Task item: Given O=C(O)CC1Cc2ccc(-c3cc(F)cc(OC(F)F)c3)cc2N1S(=O)(=O)c1cccc(C(F)(F)F)c1 (racemic) , respond with its Cmax.
Reply: 1400

----------
# target: Nuclear receptor ROR-gamma (Homo sapiens, UniProt P51449)
# Sequence (P51449 whole entry, the tested form may be a part): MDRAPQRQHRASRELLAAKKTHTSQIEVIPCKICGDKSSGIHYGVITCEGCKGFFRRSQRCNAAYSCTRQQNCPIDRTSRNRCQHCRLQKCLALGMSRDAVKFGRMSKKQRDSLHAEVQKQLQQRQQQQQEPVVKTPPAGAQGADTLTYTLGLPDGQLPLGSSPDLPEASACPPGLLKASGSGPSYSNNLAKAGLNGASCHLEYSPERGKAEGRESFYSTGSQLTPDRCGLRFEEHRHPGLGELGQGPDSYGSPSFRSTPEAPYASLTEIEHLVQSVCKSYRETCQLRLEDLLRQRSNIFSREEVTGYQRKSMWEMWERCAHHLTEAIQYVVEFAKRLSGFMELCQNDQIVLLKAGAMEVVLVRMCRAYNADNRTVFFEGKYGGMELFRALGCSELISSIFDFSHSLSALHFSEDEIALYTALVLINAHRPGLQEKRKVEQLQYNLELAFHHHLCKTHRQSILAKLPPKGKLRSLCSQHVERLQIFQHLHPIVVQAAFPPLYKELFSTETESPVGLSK
# measurement_protocol: Transactivation of human GAL4-fused RORgammaT LBD expressed in human HEK293T cells incubated for 16 to 20 hrs by steady-glo luciferase assay
# Type: cell-based
Below, each entry is listed with its recorded pEC50.
Worth noting: pEC50 values are minus log10 of concentrations stated in mol/L.

# compound, target, pEC50
records = [
    ("O=C(O)C1CN(C(=O)CC2Cc3ccc(-c4cc(F)cc(OC(F)F)c4)cc3N2S(=O)(=O)c2cccc(C(F)(F)F)c2)C1 (stereo unspecified)", "Nuclear receptor ROR-gamma (Homo sapiens, UniProt P51449)", 5.39),
    ("O=C(CC1Cc2ccc(-c3cc(F)cc(OC(F)F)c3)cc2N1S(=O)(=O)c1cccc(C(F)(F)F)c1)N1CC2(COC2)C1 (stereo unspecified)", "Nuclear receptor ROR-gamma (Homo sapiens, UniProt P51449)", 6.12),
    ("O=C(O)CCC1Cc2ccc(-c3cc(F)cc(OC(F)F)c3)cc2N1S(=O)(=O)c1cccc(C(F)(F)F)c1 (stereo unspecified)", "Nuclear receptor ROR-gamma (Homo sapiens, UniProt P51449)", 5.63),
]

Task item: Note down pEC50 recorded for O=C(O)CCCC1Cc2ccc(-c3cc(F)cc(OC(F)F)c3)cc2N1S(=O)(=O)c1cccc(C(F)(F)F)c1 (stereo unspecified)
Reply: 6.37

Task item: Input O=C(O)C1CCN(C(=O)CC2Cc3ccc(-c4cc(F)cc(OC(F)F)c4)cc3N2S(=O)(=O)c2cccc(C(F)(F)F)c2)CC1 (stereo unspecified) , output reported pEC50.
Reply: 5.26

Task item: Annotate the compound `O=C(O)C[C@@H]1Cc2ccc(-c3cc(F)cc(OC(F)F)c3)cc2N1S(=O)(=O)c1cccc(C(F)(F)F)c1` with its measured pEC50.
Reply: 6.70

----------
# measurement_protocol: Cmax in CD-1 mouse at 1 mg/kg, iv measured for 24 hrs by LC-MS/MS analysis
# Assay type: ADME, organism-based
# Parameters: dose 1 mg/kg, route intravenous
# protocol_conditions: in vivo
property_measured: Cmax (µg/mL)
All answers are understood in µg/mL, so give the number only.

Task item: Item O=C(O)CC1Cc2ccc(-c3cc(F)cc(OC(F)F)c3)cc2N1S(=O)(=O)c1cccc(C(F)(F)F)c1 (racemic) : provide Cmax
Reply: 1.64

----------
# measurement_protocol: Half life in CD-1 mouse at 1 mg/kg, iv measured for 24 hrs by LC-MS/MS analysis
# Type: ADME, organism-based
# protocol_conditions: in vivo
property_measured: half-life (h)
Give the number; h is assumed, so skip it.

Task item: Please give the documented half-life of O=C(O)CC1Cc2ccc(-c3cc(F)cc(OC(F)F)c3)cc2N1S(=O)(=O)c1cccc(C(F)(F)F)c1 (racemic)
Reply: 4.92

----------
# measurement_protocol: Volume of distribution at steady state in CD-1 mouse at 1 mg/kg, iv measured for 24 hrs by LC-MS/MS analysis
# Type: ADME, organism-based
# protocol_conditions: in vivo, read-out: Vdss
property_measured: Vd

Task item: State, in one line, measured Vd of O=C(O)CC1Cc2ccc(-c3cc(F)cc(OC(F)F)c3)cc2N1S(=O)(=O)c1cccc(C(F)(F)F)c1 (racemic)
Reply: 2.09 L/kg

----------
# measurement_protocol: Half life in CD-1 mouse at 5 mg/kg, po measured for 24 hrs by LC-MS/MS analysis
# Type: ADME, organism-based
# protocol_conditions: in vivo
property_measured: half-life (h)
All answers are understood in h, so give the number only.

Task item: Read off the recorded half-life for O=C(O)CC1Cc2ccc(-c3cc(F)cc(OC(F)F)c3)cc2N1S(=O)(=O)c1cccc(C(F)(F)F)c1 (racemic)
Reply: 4.15

----------
# measurement_protocol: Clearance in CD-1 mouse at 1 mg/kg, iv measured for 24 hrs by LC-MS/MS analysis
# Type: ADME, organism-based
# protocol_conditions: in vivo
property_measured: clearance (mL/min/kg)
Form entry: value (mL/min/kg) — number only.

Task item: Please give measured clearance of the following entry: O=C(O)CC1Cc2ccc(-c3cc(F)cc(OC(F)F)c3)cc2N1S(=O)(=O)c1cccc(C(F)(F)F)c1 (racemic)
Reply: 9.55

----------
Form field: EC50 (one value per entry).
# target: Nuclear receptor ROR-gamma (Homo sapiens, UniProt P51449)
# measurement_protocol: Transactivation of human GAL4-fused RORgammaT LBD expressed in human HEK293T cells incubated for 16 to 20 hrs by steady-glo luciferase assay
# Type: cell-based
Reply numerically in µM, unit not repeated.

# compound, target, property_measured, value
data = [
    ("O=C(CC1Cc2ccc(-c3cc(F)cc(OC(F)F)c3)cc2N1S(=O)(=O)c1cccc(C(F)(F)F)c1)N1CCC(O)CC1 (centres undefined)", "Nuclear receptor ROR-gamma (Homo sapiens, UniProt P51449)", "EC50", 6.04),
]

Task item: Read the entry `O=C(O)CCc1cc2ccc(-c3cc(F)cc(OC(F)F)c3)cc2n1S(=O)(=O)c1cccc(C(F)(F)F)c1` and write its reported EC50.
Reply: 1.71

Task item: Given O=C(O)CC1Cc2ccc(-c3cc(F)cc(OC(F)F)c3)cc2N1S(=O)(=O)c1cccc(C(F)(F)F)c1 (racemic) , respond with its EC50.
Reply: 0.247

Task item: Return the recorded EC50 value; entry: O=C(CC1Cc2ccc(-c3cc(F)cc(OC(F)F)c3)cc2N1S(=O)(=O)c1cccc(C(F)(F)F)c1)N1CCS(=O)(=O)CC1 (centres undefined)
Reply: 0.322

----------
# target: Nuclear receptor ROR-gamma (Homo sapiens, UniProt P51449)
# measurement_protocol: Agonist activity at APC-labeled biotinylated RORgammaT LBD (unknown origin) assessed as induction of biotinylated SRC-1 peptide recruitment incubated for 1 hr by dual FRET assay
property_measured: pEC50
pEC50 is defined as minus the log10 of a concentration measured in mol/L.

Here are 5 compounds together with their reported answers.
# compound, target, property_measured, value
rows = [
    ("O=C(O)CCc1cc2ccc(-c3cc(F)cc(OC(F)F)c3)cc2n1S(=O)(=O)c1cccc(C(F)(F)F)c1", "Nuclear receptor ROR-gamma (Homo sapiens, UniProt P51449)", "pEC50", 7.59),
    ("O=C(O)CC1Cc2ccc(-c3cc(F)cc(Cl)c3)cc2N1S(=O)(=O)c1cccc(C(F)(F)F)c1 (configuration not stated)", "Nuclear receptor ROR-gamma (Homo sapiens, UniProt P51449)", "pEC50", 7.38),
    ("O=C(O)CC1Cc2ccc(-c3cc(F)cc(C(F)(F)F)c3)cc2N1S(=O)(=O)c1cccc(C(F)(F)F)c1 (configuration not stated)", "Nuclear receptor ROR-gamma (Homo sapiens, UniProt P51449)", "pEC50", 7.38),
    ("O=C(O)CC1Cc2ccc(-c3ccc4c(c3)OC(F)(F)O4)cc2N1S(=O)(=O)c1cccc(C(F)(F)F)c1 (configuration not stated)", "Nuclear receptor ROR-gamma (Homo sapiens, UniProt P51449)", "pEC50", 7.37),
    ("O=C(O)CCC1Cc2ccc(-c3cc(F)cc(OC(F)F)c3)cc2N1S(=O)(=O)c1cccc(C(F)(F)F)c1 (configuration not stated)", "Nuclear receptor ROR-gamma (Homo sapiens, UniProt P51449)", "pEC50", 7.50),
]

Task item: Specify pEC50 for CCOc1cc(F)cc(-c2ccc3c(c2)N(S(=O)(=O)c2cccc(C(F)(F)F)c2)C(CC(=O)O)C3)c1 (configuration not stated) and stop.
Reply: 7.48

Task item: Specify reported pEC50 for the compound shown: O=C(CC1Cc2ccc(-c3cc(F)cc(OC(F)F)c3)cc2N1S(=O)(=O)c1cccc(C(F)(F)F)c1)N1CC2(COC2)C1 (configuration not stated)
Reply: 7.32

Task item: Fill in reported pEC50 for this entry: O=C(O)CC1Cc2ccc(-c3cc(F)cc(OC(F)F)c3)cc2N1S(=O)(=O)c1cccc(C(F)(F)F)c1 (racemic)
Reply: 7.68

Task item: Given the compound `O=C(O)C[C@@H]1Cc2ccc(-c3cc(F)cc(OC(F)F)c3)cc2N1S(=O)(=O)c1cccc(C(F)(F)F)c1` , write its reported pEC50.
Reply: 7.79

Task item: State its pEC50: O=C(O)CC1Cc2ccc(-c3ccc4c(c3)CCO4)cc2N1S(=O)(=O)c1cccc(C(F)(F)F)c1 (configuration not stated)
Reply: 7.25

Task item: Return pEC50 (reported value) for this compound: O=C(O)CC1Cc2ccc(-c3cccc(OC(F)(F)F)c3)cc2N1S(=O)(=O)c1cccc(C(F)(F)F)c1 (configuration not stated)
Reply: 7.51

Task item: Please give measured pEC50 of the following entry: `O=C(O)Cc1cn(S(=O)(=O)c2cccc(C(F)(F)F)c2)c2cc(-c3cc(F)cc(OC(F)F)c3)ccc12`
Reply: 6.88

Task item: Retrieve pEC50 measured for O=C(O)CC1CN(S(=O)(=O)c2cccc(C(F)(F)F)c2)c2cc(-c3cc(F)cc(OC(F)F)c3)ccc21 (configuration not stated) and print it.
Reply: 7.66

Task item: Answer with the recorded pEC50 for the compound listed here: CC(C)Oc1cc(F)cc(-c2ccc3c(c2)N(S(=O)(=O)c2cccc(C(F)(F)F)c2)C(CC(=O)O)C3)c1 (configuration not stated)
Reply: 6.91

Task item: Please give measured pEC50 of the following entry: O=C1CCN(C(=O)CC2Cc3ccc(-c4cc(F)cc(OC(F)F)c4)cc3N2S(=O)(=O)c2cccc(C(F)(F)F)c2)C1 (configuration not stated)
Reply: 7.28
